System: MCF7 breast
Assay: NCI-60 one-dose screen, 48 h (100 = growth as untreated, 0 = no growth, -100 = all killed)
Conditions: 10 µM unless noted
Method: Growth inhibition of the MCF7 human tumor cell line is measured as a screen for anti-cancer activity. Cells are grown in 96 well plates and exposed to the test compound for 48 hours. Compounds are tested at a single concentration, which is 10^-5 M for most compounds. The reported endpoint is percent growth (GI% or GIPRCNT), where numbers from 0 - 100% represent growth inhibition, and numbers from -100% - 0 represent cell death. For example, a value of 40 represents 60% growth inhibition. […]
This is part of a sample that, as a whole, favours compounds with a hit. Of some 83,000 tested, about 20% had one in any assay.
Please note: 1.0 applies when growth is 10% or greater, and 0.0 applies otherwise.

CO/C=C/C(=O)c1cc2cnc3c(=N)cc(NC(=O)C(C)C)c([nH]1)c23 = 0.0
C[C@H]1Oc2cc(cnc2N)-c2c(nn(C)c2C#N)CN(C)C(=O)c2ccc(F)cc21 = 1.0
COc1cc2nc(Nc3cccc(Cl)c3)nc(N)c2cc1OC = 1.0
NC1=Nc2ccccc2N(O)N1 = 1.0

Turning to the following molecule.
Could you verify whether the entry `Cn1c(=O)c(F)c(Nc2ccc(I)cc2F)c2c(=O)n(C[C@@H](O)CO)cnc21` shows growth of no less than 10%? 1.0

---

Please provide measured growth for the entries that follow.
system: A498 renal; test: NCI-60 one-dose screen, 48 h (100 = growth as untreated, 0 = no growth, -100 = all killed); settings: 10 µM unless noted
Compounds without any hit were thinned out: in the full panel of roughly 83,000, 20% have a hit. The source made the active and inactive calls. How the source made its calls: active means growth percent below 10; inactive means the rest.

// input: 6 compounds below; output: growth for each
1. Cc1ccc(F)c(NC(=O)Nc2ccc(-c3cccc4[nH]nc(N)c34)cc2)c1
2. Cn1c(Nc2ccc(C(F)(F)F)cc2)nc2cc(Oc3ccnc(-c4ncc(C(F)(F)F)[nH]4)c3)ccc21
3. COc1cc2cc(NCc3ccc(Cl)cc3)nc(C)c2cc1OC
4. COc1cc(Nc2ncc3c(n2)-c2ccc(Cl)cc2C(c2c(F)cccc2OC)=NC3)ccc1C(=O)O
5. CNC(=O)CN1CCC(Oc2cc3c(Nc4cccc(Cl)c4F)ncnc3cc2OC)CC1
6. C[C@@]1(C(=O)Nc2ccc(F)nc2)CCCN1c1nc(Nc2cc(C3CC3)[nH]n2)c2cccn2n1

1. 30.1% (inactive)
2. 23.7% (inactive)
3. 26% (inactive)
4. 63.2% (inactive)
5. 44.2% (inactive)
6. -41.7% (active)

---

Test system: HOP-62 NSCLC
Assay: NCI-60 one-dose screen, 48 h
Details: 10 µM unless noted
Protocol: Growth inhibition of the HOP-62 human Non-Small Cell Lung tumor cell line is measured as a screen for anti-cancer activity. Cells are grown in 96 well plates and exposed to the test compound for 48 hours. Compounds are tested at a single concentration, which is 10^-5 M for most compounds. The reported endpoint is percent growth (GI% or GIPRCNT), where numbers from 0 - 100% represent growth inhibition, and numbers from -100% - 0 represent cell death. […]
About 83,000 compounds went through this panel and 20% of them were active in at least one assay; those are over-represented in the sample as a whole. The source made the active and inactive calls. How the source made its calls: active means growth percent below 10; inactive means the rest.
Hi! Could you answer with just one of these? active, inactive

CCOC(=O)C1=C(C)N=C2Sc3cccc(OC)c3N2[C@H]1c1ccccn1 = inactive
Cc1ccc(-n2nc(C(C)(C)C)cc2NC(=O)NCc2cc(F)ccc2Oc2ccc3c(cnn3CCO)c2)cc1 = inactive
Cc1ccc(NC(=O)Nc2ccc(Nc3ncnc4sc5c(c34)CCOC5)cc2)cc1Cl = inactive
COc1cc(NC2CCC(=O)N2c2ccc(Cl)cc2Cl)cc(OC)c1OC (stereo unspecified) = inactive
NC1(c2ccc(-c3nc4ccn5c(=O)[nH]nc5c4cc3-c3ccccc3)cc2)CCC1 = inactive

Any idea what this test logged for `N#CC(C#N)=NO` ? inactive

Any idea what this test logged for Nc1c2c(c(O)c3c1=C(CO)C=N3)=NCCS2=O (stereo unspecified) ? active

Any idea what this test logged for `CCN(CC)CCNC(=O)c1c(C)[nH]c(/C=C2\C(=O)Nc3ccc(F)cc32)c1C` ? inactive

Any idea what this test logged for `Cn1cnc2c(F)c(Nc3ccc(Br)cc3F)c(C(=O)NOCCO)cc21` ? inactive

Any idea what this test logged for CC(C)(C)OC(=O)N1CCC(O)[C@@H](O[Si](c2ccccc2)(c2ccccc2)C(C)(C)C)[C@H]1/C=C/c1ccccc1 (stereo partly specified) ? inactive

Any idea what this test logged for `C[C@H]1Oc2cc(cnc2N)-c2c(nn(C)c2C#N)CN(C)C(=O)c2ccc(F)cc21` ? inactive

Any idea what this test logged for `CC[C@@H]1C(=O)N(C)c2cnc(Nc3ccc(C(=O)NC4CCN(C)CC4)cc3OC)nc2N1C1CCCC1` ? active

Any idea what this test logged for `C=C1[C@@H](O)C[C@H]2C(C)(C)C[C@H](Cl)C[C@]2(C)[C@H]1C[C@H](O)[C@H]1CC(=O)NC1=O` ? active

Any idea what this test logged for `CC(C)c1ccc(/C=N/Nc2nc3ccccc3s2)cc1` ? inactive

Any idea what this test logged for `CN(C)C/C=C/C(=O)Nc1cc2c(Nc3ccc(F)c(Cl)c3)ncnc2cc1O[C@H]1CCOC1` ? active

Any idea what this test logged for `COc1cc2ncnc(Oc3cccc(NC(=O)Nc4cc(C(C)(C)C(F)(F)F)on4)c3)c2cc1OC` ? inactive
